Source of measurements: patent US20230399311A1

Assay: Solubility of Form A in various solvents at 25° C. and 50° C.
Assay type: physicochemical
Conditions: methyl iso-butyl ketone, 25 °C, organic solvent or mixture, thermodynamic from solid; read-out: Solubility at 25° C.
measurement-kind: solubility

compound | measurement-kind | endpoint-value
C[C@@H](N)C1CCN(S(=O)(=O)c2cccc3cnccc23)CC1 [NRL-1049 (R)] | solubility | < 1000 µg/mL

###

Assay: Solubility of Form A in various solvents at 25° C. and 50° C.
Format: physicochemical
Conditions: methanol, 25 °C, organic solvent or mixture, thermodynamic from solid; read-out: Solubility at 25° C.

molecule | solubility
C[C@@H](N)C1CCN(S(=O)(=O)c2cccc3cnccc23)CC1 [NRL-1049 (R)] | > 50 mg/mL

###

Assay: Solubility of Form A in various solvents at 25° C. and 50° C.
Assay type: physicochemical
Details: ethyl acetate, 50 °C, organic solvent or mixture, thermodynamic from solid; read-out: Solubility at 50° C.

molecule | solubility
C[C@@H](N)C1CCN(S(=O)(=O)c2cccc3cnccc23)CC1 [NRL-1049 (R)] | < 1000 µg/mL

###

Test: Solubility of Form A in various solvents at 25° C. and 50° C.
Type: physicochemical
Settings: tetrahydrofuran, 25 °C, organic solvent or mixture, thermodynamic from solid; read-out: Solubility at 25° C.
measurement-kind: solubility (µg/mL)

compound | measurement-kind | endpoint-value
C[C@@H](N)C1CCN(S(=O)(=O)c2cccc3cnccc23)CC1 [NRL-1049 (R)] | solubility | 1600

###

Experiment: Solubility of Form A in various solvents at 25° C. and 50° C.
Type: physicochemical
Details: dichloromethane, 50 °C, organic solvent or mixture, thermodynamic from solid; read-out: Solubility at 50° C.

compound | solubility
C[C@@H](N)C1CCN(S(=O)(=O)c2cccc3cnccc23)CC1 [NRL-1049 (R)] | < 1000 µg/mL

###

Experiment: Solubility of Form A in various solvents at 25° C. and 50° C.
Type: physicochemical
Settings: acetonitrile, 50 °C, organic solvent or mixture, thermodynamic from solid; read-out: Solubility at 50° C.

compound | solubility
C[C@@H](N)C1CCN(S(=O)(=O)c2cccc3cnccc23)CC1 [NRL-1049 (R)] | < 1000 µg/mL

###

Test: Solubility of Form A in various solvents at 25° C. and 50° C.
Format: physicochemical
Details: acetonitrile, 25 °C, organic solvent or mixture, thermodynamic from solid; read-out: Solubility at 25° C.

molecule | solubility
C[C@@H](N)C1CCN(S(=O)(=O)c2cccc3cnccc23)CC1 [NRL-1049 (R)] | < 1000 µg/mL

###

Assay: Solubility of Form A in various solvents at 25° C. and 50° C.
Assay type: physicochemical
Settings: iso-propyl acetate, 50 °C, organic solvent or mixture, thermodynamic from solid; read-out: Solubility at 50° C.
measurement-kind: solubility

molecule | endpoint-value
C[C@@H](N)C1CCN(S(=O)(=O)c2cccc3cnccc23)CC1 [NRL-1049 (R)] | < 1000 µg/mL

###

Test: Solubility of Form A in various solvents at 25° C. and 50° C.
Type: physicochemical
Conditions: tetrahydrofuran, 50 °C, organic solvent or mixture, thermodynamic from solid; read-out: Solubility at 50° C.
measurement-kind: solubility (µg/mL)

compound | unit-label | endpoint-value
C[C@@H](N)C1CCN(S(=O)(=O)c2cccc3cnccc23)CC1 [NRL-1049 (R)] | µg/mL | 2000

###

Assay: Solubility of Form A in various solvents at 25° C. and 50° C.
Format: physicochemical
Details: methyl ethyl ketone, 50 °C, organic solvent or mixture, thermodynamic from solid; read-out: Solubility at 50° C.
measurement-kind: solubility

compound | measurement-kind | endpoint-value
C[C@@H](N)C1CCN(S(=O)(=O)c2cccc3cnccc23)CC1 [NRL-1049 (R)] | solubility | 1500 µg/mL

###

Assay: Solubility of Form A in various solvents at 25° C. and 50° C.
Type: physicochemical
Conditions: n-butyl alcohol, 25 °C, organic solvent or mixture, thermodynamic from solid; read-out: Solubility at 25° C.

molecule | unit-label | solubility
C[C@@H](N)C1CCN(S(=O)(=O)c2cccc3cnccc23)CC1 [NRL-1049 (R)] | µg/mL | 1600

###

Experiment: Solubility of Form A in various solvents at 25° C. and 50° C.
Assay type: physicochemical
Conditions: tert-butyl methyl ether, 50 °C, organic solvent or mixture, thermodynamic from solid; read-out: Solubility at 50° C.

compound | solubility
C[C@@H](N)C1CCN(S(=O)(=O)c2cccc3cnccc23)CC1 [NRL-1049 (R)] | < 1000 µg/mL

###

Assay: Solubility of Form A in various solvents at 25° C. and 50° C.
Format: physicochemical
Settings: iso-propanol, 50 °C, organic solvent or mixture, thermodynamic from solid; read-out: Solubility at 50° C.

compound | solubility [mg/mL]
C[C@@H](N)C1CCN(S(=O)(=O)c2cccc3cnccc23)CC1 [NRL-1049 (R)] | 14.7

###

Experiment: Solubility of Form A in various solvents at 25° C. and 50° C.
Type: physicochemical
Details: ethyl formate, 25 °C, organic solvent or mixture, thermodynamic from solid; read-out: Solubility at 25° C.
Protocol: The solubility of Form A of Compound 1 was evaluated at 25° C. and 50° C. in various solvents.

molecule | solubility [mg/mL]
C[C@@H](N)C1CCN(S(=O)(=O)c2cccc3cnccc23)CC1 [NRL-1049 (R)] | 13.7

###

Test: Solubility of Form A in various solvents at 25° C. and 50° C.
Type: physicochemical
Conditions: tert-butyl methyl ether, 25 °C, organic solvent or mixture, thermodynamic from solid; read-out: Solubility at 25° C.
measurement-kind: solubility

compound | endpoint-value
C[C@@H](N)C1CCN(S(=O)(=O)c2cccc3cnccc23)CC1 [NRL-1049 (R)] | < 1000 µg/mL

###

Assay: Solubility of Form A in various solvents at 25° C. and 50° C.
Format: physicochemical
Settings: 2-methoxyethanol, 50 °C, organic solvent or mixture, thermodynamic from solid; read-out: Solubility at 50° C.

compound | solubility
C[C@@H](N)C1CCN(S(=O)(=O)c2cccc3cnccc23)CC1 [NRL-1049 (R)] | > 50 mg/mL

###

Experiment: Solubility of Form A in various solvents at 25° C. and 50° C.
Assay type: physicochemical
Conditions: iso-propanol, 25 °C, organic solvent or mixture, thermodynamic from solid; read-out: Solubility at 25° C.

molecule | solubility (µg/mL)
C[C@@H](N)C1CCN(S(=O)(=O)c2cccc3cnccc23)CC1 [NRL-1049 (R)] | 500
